Value source: PubChem BioAssay (NCI)

Test system: NCI-H23 lung
Test: NCI tumour cell line growth inhibition, 48 h; in the data active = GI50 below about 0.43 µM; inactive = the rest
Valid outcomes are listed here; reply with one: active, inactive

Compound | Assigned label
Oc1ccccc1CNCC12CC3CC(CC(C3)C1)C2 | inactive

Q) Test call for this compound, please: CC[C@@]1(OC(=O)CN)C(=O)OCc2c1cc1n(c2=O)Cc2cc3c(N)cccc3nc2-1
A) active

Q) Look up the recorded call for COc1ccc(-n2cc(-c3cc(OC)c(OC)c(OC)c3)nc2SCc2ccccc2)cc1OC in this test.
A) inactive

Q) # fetch the recorded call for Clc1ccc2nnnn2n1 here
A) inactive

Q) Test call, this compound: C=C(C)[C@@H]1CC[C@]2(C)[C@H](CC=C3[C@@H]4[C@@H](C)[C@H](C)CC[C@]4(C(N)=O)CC[C@]32C)[C@@]1(C)CCC#N
A) inactive

---

Tested on: HOP-62 NSCLC
Experiment: NCI tumour cell line growth inhibition, 48 h
Measured parameter: TGI

Example entries begin here.
Molecule | TGI
COC(=O)C1=C(C(=O)OC)SC(=C(Cl)C(=S)Nc2ccccc2O)S1 | 11.2 µM
COc1cccc(N2C(=O)/C(=C\c3ccccc3)SC2c2cc(OC)c(OC)c(OC)c2)c1 (stereo not given) | > 100 µM
CC(C)(C)OC(=O)NC(CCC(=O)OCc1ccccc1)C(=O)NCCCO (stereo not given) | > 100 µM
COC(=O)C(Cc1ccc(Oc2cc(CC(NC(=O)c3ccccc3)C(=O)OC)ccc2OC)cc1)NC(=O)c1ccccc1 (stereo not given) | > 100 µM
O=C1C=CC[C@H](/C=C/c2ccccc2)O1 | > 61.6 µM
Nc1ncnc2c1ncn2C1OC(CO)C(O)C(O)C1O (stereo not given) | > 100 µM

# next molecule below
Q) Dear colleague, I am looking for the recorded TGI of the following molecule: O=C(O)c1cc(-c2ccncc2)nc2ccccc12
A) > 100 µM

---

Examples of compounds with documented TGI follow.
Test system: LXFL 529 NSCLC
Experiment: NCI tumour cell line growth inhibition, 48 h

Compound | TGI
COC(=O)[C@]12CC=C3O[C@@H]4OC5(CCCCC5)O[C@@H]4C3[C@@H]1C(=O)CCC2=O (stereo not given in full) | > 100 µM

Q) # get_value(readout='TGI', item= CCOC(=O)/C(=C\c1cccs1)P(=O)(OCC)OCC )
A) 41.4 µM

Q) If you can, please state the reported TGI value of O=C(O)CCc1cccc2c1oc1c(CCC(=O)O)cccc12 .
A) > 100 µM

Q) Recorded TGI of O=C(O)CCC(NC(=O)c1ccccc1)C(=O)O (stereo not given) , please.
A) > 100 µM

Q) Give the measured TGI of Cn1c(Cl)cn2c3nc4ccccc4nc3c(=O)c(C#N)c12 .
A) > 100 µM

Q) Fill blank: measured TGI of the compound COc1cc2c(cc1OC)[C@H]1C(COC(=O)c3ccccc3)CSC(=Nc3ccccc3)N1CC2 (stereo not given in full) is ____.
A) > 100 µM

---

System: M14 melanoma
Assay: NCI tumour cell line growth inhibition, 48 h; in the data active = GI50 below about 0.43 µM; inactive = the rest
A correct response names exactly one class from active, inactive

Compound | Assigned label
COc1cc(-n2cc(-c3ccc(Cl)cc3)nc2SCc2cccc(C#N)c2)cc(OC)c1OC | inactive
O=P(CCCCP(=O)(c1ccccc1)c1ccccc1)(c1ccccc1)c1ccccc1.[Cl][Sn]([Cl])([c]1ccccc1)[c]1ccccc1 | inactive
CCCCCCCCCCCCOC1C(C(COC2OC(C3COC(C)(C)O3)C3OC(C)(C)OC23)NC(=O)NS(=O)(=O)c2ccccc2)OC2OC(C)(C)OC21 (stereo not drawn) | inactive
CN(C)CC1C(=O)O[C@H]2[C@H]1CC/C(COC(=O)c1cc3ccccc3[nH]1)=C\CC[C@@]1(C)O[C@@H]21 (stereo partly drawn) | inactive
Cc1ccc2c(c1)C(C)Cc1c(Cl)ncnc1N2C (stereo not drawn) | inactive
C=C1C(=O)O[C@H]2[C@H]1CCC(/C=N/c1ncc(Br)cc1N)=C\CC[C@@]1(C)O[C@@H]21 | inactive

Q) Answer briefly: the call reported for COc1cc2c(cc1OCCCCCOc1ccc(-n3c(C)nc4ccccc4c3=O)cc1)N=C[C@@H]1CCCN1C2=O in this assay.
A) active

Q) Answer briefly: the call reported for CC(C)COCC(CN(Cc1ccccc1)c1ccccc1)N1CCCC1 (stereo not drawn) in this assay.
A) inactive
